system: CD2F1 mice, L1210 leukemia ip, survival T/C; assay: NCI In Vivo Anticancer Drug Screen. Data for tumor model L1210 Leukemia (intraperitoneal) in CD2F1 (CDF1) mice; conditions: endpoint: mean survival time; dose: 12.5 mg/kg/injection; schedule: Q01DX009 (ip); vehicle: saline with Tween-80; higher = longer survival
Toxic doses and inconclusive results are not listed.
endpoint name: T/C

O=Cc1c(O)c2ccccc2[nH]c1=O ... 103 % of control
N#CCCCN1CCCCC1 ... 97 % of control
C[Si](C)(C)Oc1cc(N=NNC2=CC(=O)c3ccccc3C2=O)c(O)c2ccccc12 ... 95 % of control
O=C1C=CC(=O)N1c1ccc2c(c1)OCO2 ... 86 % of control
Nc1ccc2cc(O)ccc2c1 ... 91 % of control
O=C1c2ccccc2C(=O)c2c(NCCCNCCO)ccc(NCCCNCCO)c21 ... 104 % of control
CN(C)c1ccc(/C=N/NC(=O)NN)cc1 ... 98 % of control
O=C(CNC(=O)Nc1cccc(C(F)(F)F)c1)N/N=C/c1ccccc1Cl ... 87 % of control
O=C(CBr)c1cccc(OC(=O)c2ccccc2)c1 ... 100 % of control
CN=C(N)N/N=C(\C)c1ccc2c(c1)Cc1ccccc1-2 ... 102 % of control
CC(C)c1ccccc(=O)c1O.CC(C)c1ccccc(=O)c1O.[Cu] ... 100 % of control
O=C(CNC(=O)NCc1ccco1)N/N=C/c1cc(Br)ccc1O ... 94 % of control
COC1(OC)C(Cl)=C(Cl)C(Cl)=C1Cl ... 98 % of control
Cc1cc(Cl)ccc1NC(=O)Nc1nccs1 ... 98 % of control
Cc1c(N)ccc(O)c1C ... 98 % of control
N#Cc1ccc([N+](=O)[O-])o1 ... 104 % of control
CCN(CC)CC(O)CNc1cc(C)nc(/N=C(\N)Nc2ccc(Cl)c(Cl)c2)n1 (configuration not stated) ... 104 % of control
